Molecular target: human CXCR4 (on cells, membrane extracts or viral lipoparticles) (human, UniProt P61073 1-352)
Sequence (P61073 whole entry): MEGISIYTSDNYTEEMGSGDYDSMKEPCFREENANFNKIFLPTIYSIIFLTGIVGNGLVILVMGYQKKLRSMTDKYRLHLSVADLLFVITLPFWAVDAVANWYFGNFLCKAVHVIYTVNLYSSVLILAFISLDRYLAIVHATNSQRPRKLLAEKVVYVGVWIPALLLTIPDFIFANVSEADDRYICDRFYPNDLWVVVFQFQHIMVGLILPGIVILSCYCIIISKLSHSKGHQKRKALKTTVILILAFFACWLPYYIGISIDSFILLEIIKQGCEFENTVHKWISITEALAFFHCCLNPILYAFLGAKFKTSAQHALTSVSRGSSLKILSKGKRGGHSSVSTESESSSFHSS
Assay: cell-based or functional assay
Consider the following binders; for each one, report its Fold inc. vs anti-CXCR4 building block, MOLM-13.
Numbers only, in fold.

Would you please look over these solved cases?
binder	unit_abbrev	measured
14D09-57A07 (4CXCR014D09(Q108L)-35GS-A0110057A07) (bispecific antibody, the entry carries a c-myc-His6 tag; also made as Flag3-His6-tagged protein; also called CXCR4#1-CD123#1; BI#16/20) EVQLVESGGGLVQAGGSLRLSCVASGISSSKRNMGWYRQAPGKQRESVATISSGGNKDYTDAVKDRFTISRDTTKNTVYLQMNSLKPEDTAVYYCKIEAGTGWATRRGYTYWGQGTLVTVSSGGGGSGGGGSGGGGSGGGGSGGGGSGGGGSGGGGSEVQLVESGGGLVQAGGSLRLSCAASGSIFSGNVMGWYRRQAPGKEREWVAAIASGGSIYYRDSVKGRFTISRDNAKNTVYLQMNSLKPEDTAVYYCNSHPPTLPYWGQGTLVTVSSAAAEQKLISEEDLNGAAHHHHHH	fold	2.39
281F12-55A01 (4CXCR281F12(Q108L)-35GS-A0110055A01) (bispecific antibody, the entry carries a c-myc-His6 tag; also made as Flag3-His6-tagged protein; also called CXCR4#2-CD123#2; BI#3/17) EVQLVESGGGLVQAGDSLRLSCAASGRAFSRYAMGWFRQAPGKEREFVAAIGWGPSKTNYADSVKGRFTISRDNAKNTVYLQMNTLKPEDTAVYSCAAKFVNTDSTWSRSEMYTYWGQGTLVTVSSGGGGSGGGGSGGGGSGGGGSGGGGSGGGGSGGGGSEVQLVESGGGSVQAGGSLRLSCTTSGRALNMYVMGWFRQAPGNEREFVAATSSSGGSTSYPDSVKGRFTISRDNAKNTVYLQMNSLKPEDTAAYRCAASPYVSTPTMNILEEYRYWGQGTLVTVSSAAAEQKLISEEDLNGAAHHHHHH	fold	10.9

Next, consider the following binder.
Input: Request the reported Fold inc. vs anti-CXCR4 building block, MOLM-13 associated with 281F12-57A07 (4CXCR281F12(Q108L)-35GS-A0110057A07) (bispecific antibody, the entry carries a c-myc-His6 tag; also made as Flag3-His6-tagged protein; also called CXCR4#2-CD123#1; BI#4/18) EVQLVESGGGLVQAGDSLRLSCAASGRAFSRYAMGWFRQAPGKEREFVAAIGWGPSKTNYADSVKGRFTISRDNAKNTVYLQMNTLKPEDTAVYSCAAKFVNTDSTWSRSEMYTYWGQGTLVTVSSGGGGSGGGGSGGGGSGGGGSGGGGSGGGGSGGGGSEVQLVESGGGLVQAGGSLRLSCAASGSIFSGNVMGWYRRQAPGKEREWVAAIASGGSIYYRDSVKGRFTISRDNAKNTVYLQMNSLKPEDTAVYYCNSHPPTLPYWGQGTLVTVSSAAAEQKLISEEDLNGAAHHHHHH
Output: 12.6
